Test description: Inhibition of HIV1 reverse transcriptase K103N mutant infected in human MT4 cells harboring GFP by scanning microscopic analysis
Assay readout: EC50 (nM)
Quick reminder: number only, in nM, skip the unit.

For "N#C/C=C/c1ccc(Nc2cc(NCCCN3CCOCC3)nc(Nc3ccc(C#N)cc3)n2)cc1" the compound record lists EC50 as 219

For "CN(C)CCNC(=O)c1cnc(Nc2ccc(C#N)cc2)nc1Nc1ccc(/C=C/C#N)cc1" the compound record lists EC50 as 0.631

For "N#C/C=C/c1ccc(Nc2cc(NCCc3ccc(S(N)(=O)=O)cc3)nc(Nc3ccc(C#N)cc3)n2)cc1" the compound record lists EC50 as 389

For "N#C/C=C/c1ccc(Nc2nc(Nc3ccc(C#N)cc3)ncc2C(=O)NCCCN2CCCC2)cc1" the compound record lists EC50 as 1
